Hi there, I'd appreciate the recorded PBM binding z-score for every entry that follows.
- Test system: LXRb homodimer (NR concentration 270 nM)
- assay.procedure: PBM binding z-score (relative to random genomic background probes); higher = stronger binding; sequences stand for … in GC…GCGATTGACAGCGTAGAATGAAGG
One number for each entry.

The following sequences have reported results that may help.
- sequence.string: "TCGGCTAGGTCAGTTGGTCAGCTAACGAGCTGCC"
  PBM binding z-score: -0.753
- sequence.string: "CAGCCTAGGTCAGGGCCAATATAGGAGGAACGTT"
  PBM binding z-score: -1.05

Hi, could you look up PBM binding z-score for each item in my list?
1. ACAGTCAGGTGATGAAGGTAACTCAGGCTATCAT
2. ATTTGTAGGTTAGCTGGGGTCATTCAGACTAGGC
3. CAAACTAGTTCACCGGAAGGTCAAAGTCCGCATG

1: -0.338; 2: 2.54; 3: 1.66

Hi, could you look up PBM binding z-score for each item in my list?
1. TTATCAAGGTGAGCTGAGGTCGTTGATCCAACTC
2. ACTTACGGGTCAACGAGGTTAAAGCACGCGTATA

1. -0.746
2. 0.527

----------
- Test system: PPARg:RXRa 30nM:10nM, anti-RXR (NR concentration 30 nM, RXRa partner concentration 10 nM)
- assay.procedure: PBM binding z-score (relative to random genomic background probes); higher = stronger binding; sequences stand for … in GC…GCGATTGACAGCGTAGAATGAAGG
Output true (1) for PBM binding z-score not less than 0.2; output false (0) otherwise.

Consider the worked cases shown below.
- sequence.string: "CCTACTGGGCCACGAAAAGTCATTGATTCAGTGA"
  category: "false (0)"
- sequence.string: "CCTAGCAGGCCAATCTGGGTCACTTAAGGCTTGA"
  category: "false (0)"
- sequence.string: "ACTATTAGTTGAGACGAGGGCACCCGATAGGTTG"
  category: "false (0)"

Note: attention shifts to another entry.
Does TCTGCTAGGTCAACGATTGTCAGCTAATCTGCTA have a reported PBM binding z-score of at least 0.2? true (1)

----------
- Test system: LXRa homodimer (NR concentration 270 nM)
- assay.procedure: PBM binding z-score (relative to random genomic background probes); higher = stronger binding; sequences stand for … in GC…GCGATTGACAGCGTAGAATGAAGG
measured.quantity: PBM binding z-score
Numbers only.

- sequence.string: "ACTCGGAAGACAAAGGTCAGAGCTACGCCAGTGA"
  measured.quantity: "PBM binding z-score"
  quantitative.readout: 1.47

Hi, could you look up PBM binding z-score for each item in my list?
1. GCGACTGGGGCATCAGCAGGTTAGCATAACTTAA
2. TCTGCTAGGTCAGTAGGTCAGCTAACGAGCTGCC
3. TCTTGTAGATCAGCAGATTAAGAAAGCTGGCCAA

1. -0.738
2. 0.12
3. -0.478

Hi, could you look up PBM binding z-score for each item in my list?
1. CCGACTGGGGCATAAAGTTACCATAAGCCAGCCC
2. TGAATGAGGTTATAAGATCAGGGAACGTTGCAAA
3. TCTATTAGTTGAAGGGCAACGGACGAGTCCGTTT
4. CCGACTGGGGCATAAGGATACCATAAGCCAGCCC
5. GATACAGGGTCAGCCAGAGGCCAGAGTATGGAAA
6. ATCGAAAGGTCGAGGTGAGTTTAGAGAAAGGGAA
7. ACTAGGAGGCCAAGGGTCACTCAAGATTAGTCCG

[-0.298, -0.538, 0.2, -0.612, -0.284, -0.00415, 0.119]

Hi, could you look up PBM binding z-score for each item in my list?
1. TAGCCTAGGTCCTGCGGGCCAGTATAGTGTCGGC
2. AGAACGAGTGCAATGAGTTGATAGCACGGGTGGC
3. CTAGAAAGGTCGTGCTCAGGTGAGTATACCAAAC
4. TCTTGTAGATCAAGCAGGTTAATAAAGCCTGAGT
5. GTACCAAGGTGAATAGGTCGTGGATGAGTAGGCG

1: -1.14; 2: -0.783; 3: 0.405; 4: -0.263; 5: -0.132

Entry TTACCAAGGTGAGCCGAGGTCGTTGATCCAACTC , system LXRa homodimer (NR concentration 270 nM): what PBM binding z-score was measured? -0.48

----------
- Test system: RARg:RXRa (NR concentration 270 nM, RXRa partner concentration 90 nM)
- assay.procedure: PBM binding z-score (relative to random genomic background probes); higher = stronger binding; sequences stand for … in GC…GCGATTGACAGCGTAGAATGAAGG
Category scheme (PBM binding z-score): label 0 = under 0.9, label 1 = from 0.9 up to 3, label 2 = 3 and over

Consider the worked cases shown below.
- sequence.string: "TGAATCAGGTTATAAGATCAGGGAACGTTGCAAA"
  category: "label 0"
- sequence.string: "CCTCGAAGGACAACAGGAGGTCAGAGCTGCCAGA"
  category: "label 2"
- sequence.string: "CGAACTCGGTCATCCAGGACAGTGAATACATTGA"
  category: "label 1"
- sequence.string: "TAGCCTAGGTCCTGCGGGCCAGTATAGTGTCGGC"
  category: "label 0"

Where would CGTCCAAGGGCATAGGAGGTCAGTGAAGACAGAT land among the classes by reported PBM binding z-score? label 2

Entry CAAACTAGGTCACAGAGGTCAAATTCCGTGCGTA please label 2

----------
- System: PXR homodimer (NR concentration 270 nM)
- assay.procedure: PBM binding z-score (relative to random genomic background probes); higher = stronger binding; sequences stand for … in GC…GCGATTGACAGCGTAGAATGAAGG
Output t for PBM binding z-score not less than 2; output f otherwise.

- sequence.string: "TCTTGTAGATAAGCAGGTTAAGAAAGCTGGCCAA"
  category: "f"
- sequence.string: "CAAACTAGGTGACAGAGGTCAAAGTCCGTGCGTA"
  category: "t"
- sequence.string: "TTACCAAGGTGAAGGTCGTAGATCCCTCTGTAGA"
  category: "f"
- sequence.string: "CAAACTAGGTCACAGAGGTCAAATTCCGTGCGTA"
  category: "t"

Note: attention shifts to another entry.
Does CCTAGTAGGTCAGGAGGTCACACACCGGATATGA have a reported PBM binding z-score of at least 2? f

----------
Hi there, I'd appreciate the recorded PBM binding z-score for every entry that follows.
- Tested on: PPARg homodimer (NR concentration 180 nM)
- assay.procedure: PBM binding z-score (relative to random genomic background probes); higher = stronger binding; sequences stand for … in GC…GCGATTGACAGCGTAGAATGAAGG

The following sequences have reported results that may help.
- sequence.string: "GCTAGTTGGTCAGTAAAAGGTCACACACCGGTCG"
  measured.quantity: "PBM binding z-score"
  result: 4.27
- sequence.string: "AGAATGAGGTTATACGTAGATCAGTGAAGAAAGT"
  measured.quantity: "PBM binding z-score"
  result: 0.559
- sequence.string: "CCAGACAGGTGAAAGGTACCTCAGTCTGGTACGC"
  measured.quantity: "PBM binding z-score"
  result: 0.247

// moving on: another record for PBM binding z-score
// lookup PBM binding z-score for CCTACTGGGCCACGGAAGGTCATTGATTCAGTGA 1.7

----------
Hi there, I'd appreciate the recorded PBM binding z-score for every entry that follows.
- Test system: VDR homodimer (NR concentration 270 nM)
- assay.procedure: PBM binding z-score (relative to random genomic background probes); higher = stronger binding; sequences stand for … in GC…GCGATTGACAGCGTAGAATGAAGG
One number for each entry.

The following sequences have reported results that may help.
- sequence.string: "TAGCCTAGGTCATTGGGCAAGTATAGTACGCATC"
  system: "VDR homodimer (NR concentration 270 nM)"
  quantitative.readout: 1.44
- sequence.string: "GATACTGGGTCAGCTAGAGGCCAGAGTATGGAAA"
  system: "VDR homodimer (NR concentration 270 nM)"
  quantitative.readout: 0.0442
- sequence.string: "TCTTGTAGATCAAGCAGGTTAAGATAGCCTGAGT"
  system: "VDR homodimer (NR concentration 270 nM)"
  quantitative.readout: -0.247
- sequence.string: "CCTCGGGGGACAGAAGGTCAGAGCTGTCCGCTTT"
  system: "VDR homodimer (NR concentration 270 nM)"
  quantitative.readout: 0.0933
- sequence.string: "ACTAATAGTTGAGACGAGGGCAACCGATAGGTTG"
  system: "VDR homodimer (NR concentration 270 nM)"
  quantitative.readout: 0.709

// lookup PBM binding z-score for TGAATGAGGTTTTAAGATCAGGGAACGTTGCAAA -0.172
